Tested on: S. cerevisiae expressing PfHSP40, growth rescue, plate reader
Experiment: Yeast growth rescue from Plasmodium falciparum HSP40 toxicity, dose response confirmatory, plate reader (AID 540271);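 further: yeast growth read after three days of incubation at 30 °C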
The source made the active and inactive calls. How the calls were made is not given here.
observable: AC50

INSERT INTO assay_data (compound, reading) VALUES
  ('COc1cc(OC)c(-c2c3cc(O)c(=O)cc-3oc3cc(O)c(O)cc23)cc1OC', '1.67 µM'),
  ('Cc1ccc2oc(-c3ccccc3)c(C(=O)O)c(=O)c2c1', '5.94 µM'),
  ('O=C(c1ccccc1)c1coc2c1C(=O)c1ccccc1C2=O', '11.7 µM'),
  ('Oc1cccc2ccc(Nc3ccccn3)nc12', '4.98 µM'),
  ('CCC(C)c1ccc(NC(=S)NCCn2cc(Br)cn2)cc1 (configuration not stated)', '10.1 µM'),
  ('O=C1C(Nc2ccccc2)=C/C(=N/S(=O)(=O)c2cccs2)c2ccccc21', '3.48 µM'),
  ('O=C(/C(=N/N=C/c1ccc(O)c(O)c1O)c1ccccc1)c1ccccc1', '6.09 µM'),
  ('O=C(CSc1ccc(-c2ccccn2)nn1)c1ccccc1', '2.48 µM'),
  ('COc1ccc(CNc2ncnc3sccc23)cc1', '4.38 µM'),
  ('Cc1ccc(NC(=S)Nc2cccc3cnccc23)cc1C', '> 12 µM (inactive)'),
  ('c1ccc(-c2ccc(SCc3cccnc3)nn2)nc1', '> 12 µM (inactive)'),
  ('O=C(N/N=C/c1cc(Cl)cc([N+](=O)[O-])c1O)c1ccccc1NS(=O)(=O)c1cccs1', '1.04 µM');

meta.source: PubChem BioAssay AID540271
